The measurements presented in this section are drawn from paper PMC3904705.

Assay System: DeUB-PEPC (in vitro deubiquitinated p107 homotetrameric PEPC of germinating sorghum seeds; CP21) (Sorghum bicolor, UniProt P29195)
Construct: p107 homotetramer; not phosphorylated at Ser7
Sequence (P29195 whole entry): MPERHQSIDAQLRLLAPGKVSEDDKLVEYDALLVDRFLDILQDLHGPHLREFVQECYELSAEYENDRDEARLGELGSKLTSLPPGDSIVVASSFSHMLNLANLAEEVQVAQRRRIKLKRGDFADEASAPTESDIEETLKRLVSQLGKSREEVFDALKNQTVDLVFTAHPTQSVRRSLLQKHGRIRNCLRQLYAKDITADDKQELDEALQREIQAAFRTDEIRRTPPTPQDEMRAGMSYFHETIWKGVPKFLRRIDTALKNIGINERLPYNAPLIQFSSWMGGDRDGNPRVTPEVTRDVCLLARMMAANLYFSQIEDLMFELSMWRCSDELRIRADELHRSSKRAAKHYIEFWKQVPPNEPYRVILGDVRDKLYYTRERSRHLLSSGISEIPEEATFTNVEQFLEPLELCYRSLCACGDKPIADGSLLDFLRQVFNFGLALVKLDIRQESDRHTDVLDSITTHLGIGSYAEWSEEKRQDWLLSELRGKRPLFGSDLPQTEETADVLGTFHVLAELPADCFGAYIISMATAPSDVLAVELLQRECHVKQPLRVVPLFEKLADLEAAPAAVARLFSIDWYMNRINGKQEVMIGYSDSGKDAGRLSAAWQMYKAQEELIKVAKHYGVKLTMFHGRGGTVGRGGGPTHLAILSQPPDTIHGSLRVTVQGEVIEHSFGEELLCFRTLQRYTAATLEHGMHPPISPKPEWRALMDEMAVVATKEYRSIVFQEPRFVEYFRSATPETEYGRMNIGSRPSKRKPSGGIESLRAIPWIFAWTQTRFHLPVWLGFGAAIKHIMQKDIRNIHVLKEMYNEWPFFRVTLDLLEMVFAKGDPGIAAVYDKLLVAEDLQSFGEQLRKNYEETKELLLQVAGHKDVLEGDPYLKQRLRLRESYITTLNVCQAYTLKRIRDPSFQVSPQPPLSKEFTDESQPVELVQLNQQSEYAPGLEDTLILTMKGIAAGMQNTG
Assay Text: biochemical
Set-up: PEPC activity of purified enzyme with 2 mM metabolite effector at subsaturating 0.1 mM PEP, relative to control
Condition Notes: pH 7.3, 0.1 mM PEP; read-out: % of control remaining
Readout: remaining activity at 2000 µM
Your answer should be a number followed by the unit of measure.

> print(dat)
                                   compound  result
1  O=C(O)C[C@H](C(=O)O)[C@@H](O)C(=O)O [isocitrate]     47%
2    O=C[C@H](O)[C@H](O)[C@H](O)COP(=O)(O)O     98%
3        N[C@@H](CC(=O)O)C(=O)O [Aspartate]     91%
4  O=P(O)(O)OC1O[C@H](CO)[C@@H](O)[C@H](O)[C@H]1O (stereo partly shown)    111%
5          O=C(O)C[C@H](O)C(=O)O [L-malate]     67%
6      O=P(O)(O)OCC(O)CO (stereo not shown)    108%

Note: attention shifts to another entry.
-- ask Form field: reported remaining activity at 2000 µM of O=P(O)(O)OC[C@H]1OC(O)[C@H](O)[C@@H](O)[C@@H]1O (stereo partly shown)
-- reply 112%
